I'd appreciate it if you could supply IC50 values for the items below.
Test system: PEDV DY
Assay: Antiviral activity assay (MTT, virus inhibition rate), PEDV DY
Conditions: Porcine epidemic diarrhea virus, Vero C1008, read-out: IC50 PEDV DY

Compound	IC50
NC(=O)c1ncn([C@@H]2O[C@H](CO)[C@@H](O)[C@H]2O)n1 [Ribavirin, ribavirin, reference compound]	71.4 µg/mL
CC1(C)[C@@H](O)CC[C@]2(C)[C@H]3C(=O)C=C4[C@@H]5C[C@@](C)(C(=O)O)CC[C@]5(C)CC[C@@]4(C)[C@]3(C)CC[C@@H]12 [Glycyrrhetinic acid, glycyrrhetinic acid]	> 100 µg/mL

# next compound below
Incoming: // Input: COC(=O)C1=CO[C@@H](O[C@@H]2O[C@H](CO)[C@@H](O)[C@H](O)[C@H]2O)[C@@H]2C(CO)=CC[C@H]12 [Geniposide, geniposide] . Output its IC50 only.
Outgoing: > 100 µg/mL

###

Experiment: Cytotoxicity assay (MTT)
Assay type: cell-based
Conditions: African green monkey
I'd appreciate it if you could supply CC50 at 48 h values for the items below.
One number for each entry, in µg/mL.

Molecule	CC50 at 48 h / µg/mL
CC1(C)[C@@H](O)CC[C@]2(C)[C@H]3C(=O)C=C4[C@@H]5C[C@@](C)(C(=O)O)CC[C@]5(C)CC[C@@]4(C)[C@]3(C)CC[C@@H]12 [Glycyrrhetinic acid, glycyrrhetinic acid]	17.4

Hi, could you look up CC50 at 48 h for each item in my list?
1. NC(=O)c1ncn([C@@H]2O[C@H](CO)[C@@H](O)[C@H]2O)n1 [Ribavirin, ribavirin, reference compound]
2. O=c1cc(-c2ccccc2)oc2cc(O)cc(O)c12 [Chrysin, chrysin]

Outgoing:
249
83.6

###

Assay: Cytotoxicity assay (MTT)
Assay type: cell-based
Conditions: African green monkey; Vero E6 cells, MTT, 48 h incubation; read-out: CC50
Experimental: Then, different concentrations of compounds in DMEM were added to cells and incubated for another 48 h. […] Microplate reader (BioTek, Winooski, VT, United States) was used to measure the 96-well plate at 570 nm, and the cell viability (%) was calculated by OD values ([23]). […] The percentage of relative cell viability was calculated according to the formula: […]%=[…]
I'd appreciate it if you could supply CC50 at 48 h values for the items below.
Numbers only, in µg/mL.

The cases that follow already have their CC50 at 48 h on record.
> print(dat)
                                   compound  outcome.measure      u  observed.value
1  O=C1C[C@@H](c2ccc(O)cc2)Oc2cc(O)cc(O)c21     CC50 at 48 h  µg/mL            61.9
2  CC1(C)CC[C@]2(C(=O)O)CC[C@]3(C)C(=CC[C@@H]4[C@@]5(C)CC[C@H](O)C(C)(C)[C@@H]5CC[C@]43C)[C@@H]2C1     CC50 at 48 h  µg/mL            4.05

# next compound below
Incoming: // Input: COC(=O)C1=CO[C@@H](O[C@@H]2O[C@H](CO)[C@@H](O)[C@H](O)[C@H]2O)[C@@H]2C(CO)=CC[C@H]12 [Geniposide, geniposide] . Output its CC50 at 48 h only.
Outgoing: 10.4

###

Test system: PEDV DY
Assay: Antiviral activity assay (MTT, virus inhibition rate), PEDV DY
Conditions: Porcine epidemic diarrhea virus, Vero C1008, read-out: IC50 PEDV DY
Outcome measure: IC50 (µg/mL)
Give bare numbers, in µg/mL.

> print(dat)
                            compound.string  observed.value
1  O=C1C[C@@H](c2ccc(O)cc2)Oc2cc(O)cc(O)c21             4.5

# next compound below
Incoming: // Input: `O=c1cc(-c2ccccc2)oc2cc(O)cc(O)c12` . Output its IC50 only.
Outgoing: 2.48
